# TEST NAME: growth suppression of yeast trafficking mutant, preliminary HTS, modulators of trafficking downstream of Golgi apparatus project, 1536-format plate, OD 615 nm (AID 637)
# CONDITION PARAMETERS: yeast transport mutant growth, absorbance 615 nm, 18 h
The source made the active and inactive calls. Rule as the data show it: active = inhibition above about 30%; inactive = the rest.
Hi there, use one of these labels in your reply, thanks! active, inactive

Data request: Entry Cc1cc(C)c2c(C)nn(C3CCCCC3)c2n1 : call = ?
Data returned: inactive

Data request: Which outcome was entered for the molecule CC(C)CCn1c(=O)c2ccccc2n2c(CN(C)Cc3ccccc3)nnc12 in this test?
Data returned: inactive

Data request: Kindly provide the recorded test outcome for the following molecule: CCC(C)(C(=O)NC1CCCCC1)N(Cc1ccco1)C(=O)c1cnccn1 (centres undefined)
Data returned: inactive

Data request: Please let me know the test result on file for OC(CNCC1COc2ccccc2O1)COCc1cccs1 (centres undefined) .
Data returned: inactive

Data request: Answer briefly: the call reported for CCCCS(=O)(=O)NC1=NCN(C2CCN(Cc3ccccc3)CC2)CN1 in this assay.
Data returned: inactive

Data request: // return assay outcome for CCOC(=O)CSc1nnc(Cn2nnc(-c3ccccc3)n2)n1CC
Data returned: inactive

Data request: Please indicate how the test categorized CCOC(=O)C1=C(C)N=C2SCCC(=O)N2C1c1cc(Br)ccc1OC (centres undefined) .
Data returned: inactive

Data request: Write down the call the test reported for this molecule. Item: Cc1cc(NC(=O)CSc2nccn2-c2ccc(F)cc2)no1
Data returned: inactive

Data request: Outcome logged for CCOC(=O)c1ccc(NC(=O)CSc2ncccn2)cc1 in this assay:
Data returned: inactive

Data request: How did this test come out for Cc1ccc2[nH]c3c(c2c1)CCc1cn[nH]c1-3 ?
Data returned: inactive

Data request: What was the test verdict on COc1ccc(C(=O)OC(COc2ccccc2)Cn2ccnc2)cc1 (centres undefined) ?
Data returned: active

Data request: Per the assay record, what outcome was assigned to COc1ccccc1N1CCN(C(=O)C(Cc2ccccc2)NC(=O)C2CCCCC2)CC1 (centres undefined) ?
Data returned: inactive

Data request: For CC(C(=O)Nc1ccccc1-c1ccccc1)N1CCN(C(=O)c2ccco2)CC1 (centres undefined) , what call appears in the results of this test?
Data returned: inactive

Data request: For this molecule, state the assay outcome: CC(=O)NCCn1c(SCC(=O)NCC2CCCO2)nc2ccccc2c1=O (centres undefined)
Data returned: inactive
